- System: RARg homodimer (NR concentration 270 nM)
- protocol: PBM binding z-score (relative to random genomic background probes); higher = stronger binding; sequences stand for … in GC…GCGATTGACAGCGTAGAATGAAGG
Listed here are sequences together with their documented PBM binding z-score.
readout.name: PBM binding z-score

{"columns": ["macromolecule.sequence", "readout.name", "reported.measurement"],
 "data": [
  ["CGAACGAGGGCTTGAGTTGATAGCAAATGCCGAT", "PBM binding z-score", -0.288],
  ["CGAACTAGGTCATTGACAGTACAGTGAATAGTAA", "PBM binding z-score", 4.03],
  ["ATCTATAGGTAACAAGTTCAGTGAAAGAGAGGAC", "PBM binding z-score", 1.59],
  ["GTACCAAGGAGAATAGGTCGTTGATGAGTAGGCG", "PBM binding z-score", 0.222],
  ["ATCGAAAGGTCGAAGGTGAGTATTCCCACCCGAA", "PBM binding z-score", 3.76],
  ["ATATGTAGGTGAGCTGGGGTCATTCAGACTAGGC", "PBM binding z-score", 2.84],
  ["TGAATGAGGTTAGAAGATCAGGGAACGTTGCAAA", "PBM binding z-score", 0.936],
  ["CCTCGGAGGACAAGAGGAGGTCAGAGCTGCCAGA", "PBM binding z-score", 2.83],
  ["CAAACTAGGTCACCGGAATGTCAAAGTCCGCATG", "PBM binding z-score", 5.46],
  ["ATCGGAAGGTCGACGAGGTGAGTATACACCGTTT", "PBM binding z-score", 2.65],
  ["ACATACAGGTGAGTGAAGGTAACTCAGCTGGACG", "PBM binding z-score", 0.903],
  ["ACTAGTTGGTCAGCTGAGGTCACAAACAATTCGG", "PBM binding z-score", 3.86]
]}

###

- Tested on: PPARg DBDmut:RXRa IVT, anti-PPARg (DBD mutation: PPARg1 K132A/R137A, NR concentration 270 nM, RXRa partner concentration 90 nM)
- protocol: PBM binding z-score (relative to random genomic background probes); higher = stronger binding; sequences stand for … in GC…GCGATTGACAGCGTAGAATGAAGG

{"columns": ["macromolecule.sequence", "PBM binding z-score"],
 "data": [
  ["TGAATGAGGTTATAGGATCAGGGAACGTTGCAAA", 0.833],
  ["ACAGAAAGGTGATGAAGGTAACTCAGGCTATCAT", 0.665],
  ["CCGAGTAGGTTATGGGACATTCAGGCAACGGTGA", -0.291],
  ["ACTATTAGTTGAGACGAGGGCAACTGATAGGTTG", 1.37],
  ["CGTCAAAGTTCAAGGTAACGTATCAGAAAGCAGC", 0.808],
  ["CTCGAATGGTCGTGCTCAGGTGAGTATACCAAAC", -1.36],
  ["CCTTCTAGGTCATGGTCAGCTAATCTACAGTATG", 1.58],
  ["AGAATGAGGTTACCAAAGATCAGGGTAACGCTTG", 1.58],
  ["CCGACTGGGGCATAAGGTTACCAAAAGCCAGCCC", -0.301],
  ["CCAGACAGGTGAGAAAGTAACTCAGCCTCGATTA", -0.222],
  ["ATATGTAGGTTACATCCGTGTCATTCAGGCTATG", 2.03],
  ["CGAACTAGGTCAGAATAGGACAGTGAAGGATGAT", 2.83]
]}

###

- Tested on: LXRb:RXRa (NR concentration 270 nM, RXRa partner concentration 90 nM)
- protocol: PBM binding z-score (relative to random genomic background probes); higher = stronger binding; sequences stand for … in GC…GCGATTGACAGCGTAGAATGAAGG
Listed here are sequences together with their documented PBM binding z-score.

{"columns": ["macromolecule.sequence", "PBM binding z-score"],
 "data": [
  ["GATAGAGGGTCAAGGCCAGAGTACGCGTATTGAT", 2.76],
  ["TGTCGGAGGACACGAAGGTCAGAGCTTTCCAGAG", 0.759],
  ["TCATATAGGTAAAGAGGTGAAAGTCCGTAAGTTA", 1.56],
  ["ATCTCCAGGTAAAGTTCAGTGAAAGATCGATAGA", 1.55],
  ["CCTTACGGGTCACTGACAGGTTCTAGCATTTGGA", 2.9],
  ["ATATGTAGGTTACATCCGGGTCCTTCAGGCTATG", 0.684]
]}

###

- Test system: PPARg DBDmut:RXRa IVT, anti-PPARg (DBD mutation: PPARg1 K132A/R137A, NR concentration 270 nM, RXRa partner concentration 90 nM)
- protocol: PBM binding z-score (relative to random genomic background probes); higher = stronger binding; sequences stand for … in GC…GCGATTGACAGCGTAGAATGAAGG
Hi, to clarify the labels: Condition met covers PBM binding z-score from 0.2 upward, Condition not met covers anything below 0.2.

{"columns": ["macromolecule.sequence", "category.label"],
 "data": [
  ["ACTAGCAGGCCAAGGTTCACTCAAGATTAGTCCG", "Condition not met"],
  ["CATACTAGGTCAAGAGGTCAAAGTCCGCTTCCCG", "Condition met"],
  ["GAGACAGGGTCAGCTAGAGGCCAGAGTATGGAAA", "Condition not met"],
  ["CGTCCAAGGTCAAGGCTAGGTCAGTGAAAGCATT", "Condition not met"],
  ["GCTAGCAGGCCATTTGGGTCACCCAATGACGGGC", "Condition not met"],
  ["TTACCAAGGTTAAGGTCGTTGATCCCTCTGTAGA", "Condition met"],
  ["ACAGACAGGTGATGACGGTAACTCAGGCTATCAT", "Condition not met"],
  ["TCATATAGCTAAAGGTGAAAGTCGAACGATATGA", "Condition met"],
  ["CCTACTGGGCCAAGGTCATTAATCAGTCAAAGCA", "Condition met"],
  ["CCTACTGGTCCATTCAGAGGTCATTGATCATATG", "Condition not met"],
  ["CGTCCAAGGTCAGAGAGGTCAGTGATTGCCGAGT", "Condition not met"],
  ["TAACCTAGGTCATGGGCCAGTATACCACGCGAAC", "Condition met"]
]}

###

- Tested on: RARb homodimer (NR concentration 270 nM)
- protocol: PBM binding z-score (relative to random genomic background probes); higher = stronger binding; sequences stand for … in GC…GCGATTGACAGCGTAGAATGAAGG
Listed here are sequences together with their documented PBM binding z-score.

{"columns": ["macromolecule.sequence", "PBM binding z-score"],
 "data": [
  ["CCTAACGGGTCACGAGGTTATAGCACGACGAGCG", 3.65],
  ["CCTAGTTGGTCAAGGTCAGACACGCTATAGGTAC", 3.62],
  ["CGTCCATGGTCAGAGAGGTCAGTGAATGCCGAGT", 4.09],
  ["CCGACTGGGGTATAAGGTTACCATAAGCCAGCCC", 0.893],
  ["ACTTACCGGTCAACGAGGTTATAGCACGCGTATA", 2.92],
  ["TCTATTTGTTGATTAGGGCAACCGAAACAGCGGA", 0.77]
]}

###

Listed here are sequences together with their documented PBM binding z-score.
- Tested on: VDR homodimer (NR concentration 270 nM)
- protocol: PBM binding z-score (relative to random genomic background probes); higher = stronger binding; sequences stand for … in GC…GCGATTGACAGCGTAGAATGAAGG

{"columns": ["macromolecule.sequence", "PBM binding z-score"],
 "data": [
  ["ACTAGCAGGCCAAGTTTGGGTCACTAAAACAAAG", 0.383],
  ["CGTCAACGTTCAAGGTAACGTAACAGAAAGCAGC", -0.423],
  ["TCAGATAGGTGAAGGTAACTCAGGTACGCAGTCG", 0.382],
  ["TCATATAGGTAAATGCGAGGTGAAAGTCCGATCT", 0.605],
  ["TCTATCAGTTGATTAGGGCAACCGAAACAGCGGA", -0.1],
  ["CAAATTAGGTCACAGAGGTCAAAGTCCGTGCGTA", 6.37]
]}

###

- Tested on: THRa homodimer (NR concentration 90 nM)
- protocol: PBM binding z-score (relative to random genomic background probes); higher = stronger binding; sequences stand for … in GC…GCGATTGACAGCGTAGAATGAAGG
readout.name: PBM binding z-score

{"columns": ["macromolecule.sequence", "reported.measurement"],
 "data": [
  ["CGAACTTGGTCAGAACAGGACAGTGAAGGATGAT", -0.102],
  ["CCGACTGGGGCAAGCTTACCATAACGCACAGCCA", -0.624],
  ["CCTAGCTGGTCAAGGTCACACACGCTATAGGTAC", 3.76],
  ["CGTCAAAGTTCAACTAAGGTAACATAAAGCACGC", 1.77],
  ["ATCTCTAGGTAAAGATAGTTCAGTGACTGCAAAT", 0.426],
  ["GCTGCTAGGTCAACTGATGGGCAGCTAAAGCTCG", 0.684],
  ["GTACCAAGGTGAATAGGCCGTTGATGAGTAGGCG", 0.224],
  ["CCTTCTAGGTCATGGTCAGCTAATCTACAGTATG", 2.5],
  ["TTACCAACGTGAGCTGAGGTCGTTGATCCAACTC", 1.5],
  ["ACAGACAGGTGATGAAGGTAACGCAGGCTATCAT", -0.159],
  ["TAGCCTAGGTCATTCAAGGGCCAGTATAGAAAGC", 0.514],
  ["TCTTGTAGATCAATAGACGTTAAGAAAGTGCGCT", -0.846],
  ["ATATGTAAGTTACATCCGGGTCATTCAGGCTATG", 2.33],
  ["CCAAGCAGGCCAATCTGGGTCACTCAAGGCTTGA", 0.319],
  ["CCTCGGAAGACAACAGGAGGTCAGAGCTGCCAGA", 0.668],
  ["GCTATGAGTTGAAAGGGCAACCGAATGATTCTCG", -0.184],
  ["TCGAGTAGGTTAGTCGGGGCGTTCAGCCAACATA", -0.254],
  ["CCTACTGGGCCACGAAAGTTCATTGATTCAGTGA", -0.104],
  ["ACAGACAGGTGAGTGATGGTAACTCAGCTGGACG", -0.414],
  ["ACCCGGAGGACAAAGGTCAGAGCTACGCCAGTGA", 0.681],
  ["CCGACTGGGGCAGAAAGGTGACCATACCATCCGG", -0.472],
  ["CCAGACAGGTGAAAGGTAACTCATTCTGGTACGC", 0.167],
  ["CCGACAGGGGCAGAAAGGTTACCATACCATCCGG", -0.126],
  ["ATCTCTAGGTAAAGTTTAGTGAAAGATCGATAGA", 0.126],
  ["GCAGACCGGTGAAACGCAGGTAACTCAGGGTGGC", -0.854],
  ["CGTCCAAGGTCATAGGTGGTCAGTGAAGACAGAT", 2.79],
  ["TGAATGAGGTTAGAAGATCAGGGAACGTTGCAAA", -0.107],
  ["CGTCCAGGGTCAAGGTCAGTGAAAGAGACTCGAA", 2.79],
  ["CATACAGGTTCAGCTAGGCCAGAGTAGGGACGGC", 0.0311],
  ["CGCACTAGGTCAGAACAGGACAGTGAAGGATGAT", 0.508],
  ["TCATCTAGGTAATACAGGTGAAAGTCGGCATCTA", 0.275],
  ["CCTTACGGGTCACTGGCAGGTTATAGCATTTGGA", 0.323],
  ["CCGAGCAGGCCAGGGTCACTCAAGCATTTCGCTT", 1.02],
  ["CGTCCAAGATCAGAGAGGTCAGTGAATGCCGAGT", 0.926],
  ["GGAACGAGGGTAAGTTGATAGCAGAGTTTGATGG", -0.196],
  ["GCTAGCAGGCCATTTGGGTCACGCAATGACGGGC", 1.19],
  ["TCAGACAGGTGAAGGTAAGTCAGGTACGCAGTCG", 0.538],
  ["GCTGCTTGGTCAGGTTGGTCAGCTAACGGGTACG", 0.0955],
  ["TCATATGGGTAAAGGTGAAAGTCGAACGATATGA", -0.573],
  ["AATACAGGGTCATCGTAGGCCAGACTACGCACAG", 1.68],
  ["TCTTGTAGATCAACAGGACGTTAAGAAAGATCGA", -0.626],
  ["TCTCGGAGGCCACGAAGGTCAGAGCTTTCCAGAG", -0.105],
  ["CGAACTAGGTCAGAACAGGACAGTGCAGGATGAT", 0.224],
  ["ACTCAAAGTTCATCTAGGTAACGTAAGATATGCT", 0.619],
  ["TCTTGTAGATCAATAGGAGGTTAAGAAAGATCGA", -0.311],
  ["AGTCAAAATTCATCTAGGTAACGTAAGATATGCT", 0.0978],
  ["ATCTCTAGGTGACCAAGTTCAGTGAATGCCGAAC", 0.429],
  ["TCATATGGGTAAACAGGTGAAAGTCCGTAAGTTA", -0.368],
  ["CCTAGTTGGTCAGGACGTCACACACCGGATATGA", 1.03],
  ["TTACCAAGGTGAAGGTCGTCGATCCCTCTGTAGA", 0.653],
  ["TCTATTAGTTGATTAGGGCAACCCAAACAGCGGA", 0.499]
]}
